# PROCEDURE SUMMARY: Selectivity ratio of IC50 for human MRC5 cells to IC50 for human HCT116 cells
# Assay type: ADME, cell-based, HCT-116
# CONDITION SUMMARY: MRC5 cells versus HCT116 cells, read-out: Ratio IC50

- STRUCTURE NOTATION: "COc1cc(/C=C/C(=O)N2CCC=C(Cl)C2=O)cc(OC)c1OC"
  selectivity ratio: 2

* * *

# System: HCT-116
# PROCEDURE SUMMARY: Cytotoxicity against human HCT116 cells after 72 hrs by MTT assay
# Type: functional, cell-based
# CONDITION SUMMARY: HCT-116, 72 h
pIC50: −log10 of the molar value.
Below, each of the molecules is paired with its reported pIC50 value.

- STRUCTURE NOTATION: "COc1cc(/C=C/C(=O)N2CCC=C(N3CCOCC3)C2=O)cc(OC)c1OC"
  BOUND OPERATOR: "="
  pIC50: 4.33
- STRUCTURE NOTATION: "CC/C(=C\\c1cc(OC)c(OC)c(OC)c1)C(=O)N1CCC=C(N2CCOCC2)C1=O"
  BOUND OPERATOR: "<"
  pIC50: 4.00
- STRUCTURE NOTATION: "CCCC/C(=C\\c1cc(OC)c(OC)c(OC)c1)C(=O)N1CCC=C(Cl)C1=O"
  BOUND OPERATOR: "="
  pIC50: 5.12
- STRUCTURE NOTATION: "COc1cc(/C=C(\\C)C(=O)N2CCC=CC2=O)cc(OC)c1OC"
  BOUND OPERATOR: "="
  pIC50: 4.99
- STRUCTURE NOTATION: "CCC/C(=C\\c1cc(OC)c(OC)c(OC)c1)C(=O)N1CCC=C(N2CCOCC2)C1=O"
  BOUND OPERATOR: "<"
  pIC50: 4.00
- STRUCTURE NOTATION: "COc1cc(/C=C(\\C)C(=O)N2CCC=C(Cl)C2=O)cc(OC)c1OC"
  BOUND OPERATOR: "="
  pIC50: 5.01
- STRUCTURE NOTATION: "COc1cc(/C=C/C(=O)N2CCC=CC2=O)cc(OC)c1OC"
  BOUND OPERATOR: "="
  pIC50: 5.22
- STRUCTURE NOTATION: "COc1cc(/C=C/C(=O)N2CCC=C(Br)C2=O)cc(OC)c1OC"
  BOUND OPERATOR: "="
  pIC50: 5.15
- STRUCTURE NOTATION: "CCCC/C(=C\\c1cc(OC)c(OC)c(OC)c1)C(=O)N1CCC=C(Br)C1=O"
  BOUND OPERATOR: "="
  pIC50: 5.59
- STRUCTURE NOTATION: "CC/C(=C\\c1cc(OC)c(OC)c(OC)c1)C(=O)N1CCC=C(Cl)C1=O"
  BOUND OPERATOR: "="
  pIC50: 5.04
- STRUCTURE NOTATION: "CCC/C(=C\\c1cc(OC)c(OC)c(OC)c1)C(=O)N1CCC=C(Cl)C1=O"
  BOUND OPERATOR: "="
  pIC50: 5.09
- STRUCTURE NOTATION: "CCC/C(=C\\c1cc(OC)c(OC)c(OC)c1)C(=O)N1CCC=C(Br)C1=O"
  BOUND OPERATOR: "="
  pIC50: 5.67
- STRUCTURE NOTATION: "COc1cc(/C=C(\\C)C(=O)N2CCC=C(Br)C2=O)cc(OC)c1OC"
  BOUND OPERATOR: "="
  pIC50: 5.21
- STRUCTURE NOTATION: "CC/C(=C\\c1cc(OC)c(OC)c(OC)c1)C(=O)N1CCC=C(Br)C1=O"
  BOUND OPERATOR: "="
  pIC50: 5.52
- STRUCTURE NOTATION: "COc1cc(/C=C(\\C)C(=O)N2CCC=C(N3CCOCC3)C2=O)cc(OC)c1OC"
  BOUND OPERATOR: "<"
  pIC50: 4.00
- STRUCTURE NOTATION: "COc1cc(/C=C/C(=O)N2CCC=C(Cl)C2=O)cc(OC)c1OC"
  BOUND OPERATOR: "="
  pIC50: 5.37
- STRUCTURE NOTATION: "CC/C(=C\\c1cc(OC)c(OC)c(OC)c1)C(=O)N1CCC=CC1=O"
  BOUND OPERATOR: "="
  pIC50: 4.91
